Readings of Percent Effect for the listed compounds
test system: Wolbachia pipientis; assay: Anti-Wolbachia Cell-Based Screen; type: functional; parameters: scale not given: in the data most compounds retested in dose-response had high values; conditions: 5 µM
The campaign covered roughly 48,000 compounds. About 13,000 (27%) showed an effect of 50% or more. The list shows a part of the results.
READOUT: Percent Effect (%)

compound="Cn1c(CN2CCC(O)CC2)nnc1C1CCCN(C(=O)C2CNC2)C1 (configuration not stated)" target="Wolbachia pipientis" readout="Percent Effect" value=15.55
compound=CCOc1cccc(NS(=O)(=O)c2cc(C(=O)O)cs2)c1 target="Wolbachia pipientis" readout="Percent Effect" value=19.91
compound=CS(=O)(=O)NC1CCN(C(=O)NCc2cc[nH]n2)CC1 target="Wolbachia pipientis" readout="Percent Effect" value=108.2
compound=Cc1cnn(-c2cccc(N3CCCC3)n2)c1 target="Wolbachia pipientis" readout="Percent Effect" value=2.122
compound=O=C(Cn1cc(I)cn1)N1CCCC1 target="Wolbachia pipientis" readout="Percent Effect" value=17.91
compound="CC(C(=O)O)N1CC2(CCC1=O)CCN(C/C=C/c1ccccc1)CC2 (configuration not stated)" target="Wolbachia pipientis" readout="Percent Effect" value=-24.48
compound=COc1ccccc1N(C)S(=O)(=O)c1cc(C(=O)O)cs1 target="Wolbachia pipientis" readout="Percent Effect" value=22.41
compound="CC(NCCCn1cccn1)c1ccc(N2CCCS2(=O)=O)cc1 (configuration not stated)" target="Wolbachia pipientis" readout="Percent Effect" value=-2.983
compound="O=C(C1CCCC1)N1CCn2c(nnc2C2CCCNC2)C1 (configuration not stated)" target="Wolbachia pipientis" readout="Percent Effect" value=107.7
compound=COCCCNS(=O)(=O)c1ccc(N2CCCCS2(=O)=O)cc1 target="Wolbachia pipientis" readout="Percent Effect" value=124.1
compound="O=C(CSC1CCc2ccccc2NC1=O)NCCO (configuration not stated)" target="Wolbachia pipientis" readout="Percent Effect" value=-0.2821
compound=O=C(Cn1cc(I)cn1)N1CCOCC1 target="Wolbachia pipientis" readout="Percent Effect" value=0.7374
compound="c1cnn(-c2ccc(CN3CCOC(Cn4cncn4)C3)cc2)c1 (configuration not stated)" target="Wolbachia pipientis" readout="Percent Effect" value=-5.555
compound=O=C(NCc1cc2n(n1)CCCNC2)C1(c2ccccc2)CCCCC1 target="Wolbachia pipientis" readout="Percent Effect" value=0.555
compound="O=C1Nc2ccccc2CN(CC2CC2)C12CCNC2 (configuration not stated)" target="Wolbachia pipientis" readout="Percent Effect" value=99.74
compound=CC(=O)N1CCC(C(=O)NCc2cc[nH]n2)(c2ccccc2)CC1 target="Wolbachia pipientis" readout="Percent Effect" value=107.6
compound="CCCN1Cc2ccccc2NC(=O)C12CCNC2 (configuration not stated)" target="Wolbachia pipientis" readout="Percent Effect" value=105.5
compound=O=C(C1CCC1)N1CCn2c(COc3ncccn3)nnc2C1 target="Wolbachia pipientis" readout="Percent Effect" value=-0.8888
compound="CCOCC1CCN(C(=O)C(c2c(F)cccc2F)N(C)C)CC1 (configuration not stated)" target="Wolbachia pipientis" readout="Percent Effect" value=-13.66
compound="CN(C)CC1CN(Cc2cccc(C(=O)N(C)C)c2)CCO1 (configuration not stated)" target="Wolbachia pipientis" readout="Percent Effect" value=13.75
compound="CC(NCCCn1ccnc1)c1ccc(N2CCCS2(=O)=O)cc1 (configuration not stated)" target="Wolbachia pipientis" readout="Percent Effect" value=-4.666
compound=CC(C)(C)CN1CCC(c2nnc(Cn3ccnc3)n2C2CC2)CC1 target="Wolbachia pipientis" readout="Percent Effect" value=-15.12
compound="CC(CNC(=O)N1CCN(c2ncccn2)CC1)Cc1cccs1 (configuration not stated)" target="Wolbachia pipientis" readout="Percent Effect" value=-35.53
compound=O=C(CCn1cc(Cl)cn1)Nc1ncccn1 target="Wolbachia pipientis" readout="Percent Effect" value=-3.476
compound=CCN(c1cc(C)cc(C)c1)S(=O)(=O)c1cc(C(=O)O)cs1 target="Wolbachia pipientis" readout="Percent Effect" value=116.9
compound=O=C(Cn1cc(-c2ccccc2)cn1)N1CCNC1=O target="Wolbachia pipientis" readout="Percent Effect" value=110
compound=CN(c1ccc(F)c(F)c1)S(=O)(=O)c1cc(C(=O)O)cs1 target="Wolbachia pipientis" readout="Percent Effect" value=2.683
compound="Cc1ccc(N2CCN(c3ccccc3C)CC2C)nn1 (configuration not stated)" target="Wolbachia pipientis" readout="Percent Effect" value=-2.059
compound="O=C(NCC1CCOC1)N1CCN(c2ncccn2)CC1 (configuration not stated)" target="Wolbachia pipientis" readout="Percent Effect" value=14.21
compound=Cn1cncc1-c1nnc([C@H]2CCN(CC(C)(C)C)C2)o1 target="Wolbachia pipientis" readout="Percent Effect" value=-4.073
compound=CCc1nnc(CN2CCC3(CC2)Nc2ccccc2NC3=O)o1 target="Wolbachia pipientis" readout="Percent Effect" value=8.139
compound="Cn1c(Cn2ccnc2)nnc1C1CCCN(CC(C)(C)C)C1 (configuration not stated)" target="Wolbachia pipientis" readout="Percent Effect" value=-0.4988
compound="CS(=O)(=O)NC1CCCN(C(=O)NCc2cc[nH]n2)C1 (configuration not stated)" target="Wolbachia pipientis" readout="Percent Effect" value=-1.074
compound=CCc1nsc(N2CCN(CC(=O)NCc3cccnc3)CC2)n1 target="Wolbachia pipientis" readout="Percent Effect" value=5.46
compound=O=C(Cn1cc(I)cn1)N1CCNC1=O target="Wolbachia pipientis" readout="Percent Effect" value=104.2
compound=CN(c1ccc(C(C)(C)C)cc1)S(=O)(=O)c1cc(C(=O)O)cs1 target="Wolbachia pipientis" readout="Percent Effect" value=-4.452
compound=O=C(CN1CCNC1=O)N1CCc2nnc(-c3ccccc3)n2CC1 target="Wolbachia pipientis" readout="Percent Effect" value=-8.724
compound=Cc1nccc(-c2cccc(NCC(=O)N3CCNC3=O)c2)n1 target="Wolbachia pipientis" readout="Percent Effect" value=6.599
compound="Cn1cc(S(=O)(=O)NC(CO)Cc2c[nH]c3ccccc23)cn1 (configuration not stated)" target="Wolbachia pipientis" readout="Percent Effect" value=-17.12
compound=N#Cc1ccccc1N1CCN(C(=O)NCC(=O)N2CCCC2)CC1 target="Wolbachia pipientis" readout="Percent Effect" value=-1.371
compound=CN(c1cccc2ccccc12)S(=O)(=O)c1cc(C(=O)O)cs1 target="Wolbachia pipientis" readout="Percent Effect" value=-12.64
compound="CC(C)C(C)(C#N)NC(=O)Cn1cc(Cl)cn1 (configuration not stated)" target="Wolbachia pipientis" readout="Percent Effect" value=-4.371
compound=Cc1cccc(N(C)S(=O)(=O)c2cc(C(=O)O)cs2)c1 target="Wolbachia pipientis" readout="Percent Effect" value=112.1
compound="O=C1Nc2ccccc2CN(C/C=C/c2ccccc2)C12CCNC2 (configuration not stated)" target="Wolbachia pipientis" readout="Percent Effect" value=116.1
compound=Cc1ccc(N(C)S(=O)(=O)c2cc(C(=O)O)cs2)c(C)c1 target="Wolbachia pipientis" readout="Percent Effect" value=115
compound="O=C1Nc2ccccc2CN(CC2CCCC2)C12CCNC2 (configuration not stated)" target="Wolbachia pipientis" readout="Percent Effect" value=101.1
compound=Cc1ccc(N(C)S(=O)(=O)c2cc(C(=O)O)cs2)cc1 target="Wolbachia pipientis" readout="Percent Effect" value=139

----------
tested on: Wolbachia pipientis; assay: Anti-Wolbachia Cell-Based Screen; format: functional; set-up: scale not given: in the data most compounds retested in dose-response had high values; settings: 5 µM
The campaign covered roughly 48,000 compounds. About 13,000 (27%) showed an effect of 50% or more. This is one part of the list.
Property: Percent Effect; scope: individual compounds
READOUT: Percent Effect (%)

compound=Cc1cc(NC(=O)NCCc2cccs2)n(C)n1 readout="Percent Effect" measure_unit=% value=-8.078
compound=COc1cc(CO)ccc1OCc1nc(C(C)C)no1 readout="Percent Effect" measure_unit=% value=-5.276
compound=COCCN1CCN(CCS(=O)(=O)c2cccc(OC)c2)CC1 readout="Percent Effect" measure_unit=% value=2.005
compound=NCCn1cc(C(=O)NCc2ccccc2-n2cccn2)nn1 readout="Percent Effect" measure_unit=% value=-2.966
compound="Clc1ccccc1Cn1cc(CNC2CCc3ncnn3C2)cn1 (stereo not given)" readout="Percent Effect" measure_unit=% value=121.3
compound=Cc1cnn(-c2ccc(S(=O)(=O)N(C)CC(C)(CO)CO)cc2F)c1 readout="Percent Effect" measure_unit=% value=-2.822
compound="CCC(CCN)n1ccc(C(F)(F)F)n1 (stereo not given)" readout="Percent Effect" measure_unit=% value=101
compound=CC(=O)N(Cc1ccoc1)C1CCCCC1 readout="Percent Effect" measure_unit=% value=5.985
compound=CNS(=O)(=O)c1cccc(CNC(=O)c2c(C)nn(C)c2C)c1 readout="Percent Effect" measure_unit=% value=-2.541
compound="C1CCC(CSc2nnnn2C2CC2)OC1 (stereo not given)" readout="Percent Effect" measure_unit=% value=-5.592
compound="Clc1ccc(-n2cc(CNC3CCc4ncnn4C3)cn2)cc1 (stereo not given)" readout="Percent Effect" measure_unit=% value=-12.36
compound=Cc1cc(C(=O)N2CC[C@H](OCC3CC3)[C@@H]2Cc2cccnc2)no1 readout="Percent Effect" measure_unit=% value=-4.828
compound=O=C1CCCN1CCN1CC[C@@]2(O)CCN(c3ncccn3)C[C@H]2C1 readout="Percent Effect" measure_unit=% value=-11.72
compound=CCS(=O)(=O)N1CCC(c2nccn2Cc2ccncc2)CC1 readout="Percent Effect" measure_unit=% value=17.72
compound="O=C1CC[C@H]2[C@H](CCN2C(=O)C2CCCO2)N1Cc1ccncc1 (stereo not given in full)" readout="Percent Effect" measure_unit=% value=9.155
compound=CC(C)N(C)[C@@H]1CCN(C(=O)[C@H]2CCCO2)[C@H]1Cc1cnn(C)c1 readout="Percent Effect" measure_unit=% value=-7.042
compound=Cc1ccc(C(=O)N2C[C@@H]3COC[C@]3(COCc3cccnc3)C2)cn1 readout="Percent Effect" measure_unit=% value=-15.81
compound=Cc1nc(NC(=O)NCc2cccnc2NCCN(C)C)sc1C readout="Percent Effect" measure_unit=% value=-3.378
compound=Cc1[nH]c2c(C)ccc(C)c2c1CC(=O)NCc1csc(N(C)C)n1 readout="Percent Effect" measure_unit=% value=-37.05
compound="c1ccc(-n2cc(CNC3CCc4ncnn4C3)cn2)cc1 (stereo not given)" readout="Percent Effect" measure_unit=% value=107.7
compound="Cn1cc(CNC2CCc3ncnn3C2)c(-c2cccnc2)n1 (stereo not given)" readout="Percent Effect" measure_unit=% value=-2.662
compound=CNC(=O)[C@@H]1C[C@@H](NC(=O)CSc2ccccc2)CN1C1CCOCC1 readout="Percent Effect" measure_unit=% value=0.9976
compound="COc1ccccc1C(C)CNC(=O)c1c(C)nn(C)c1OC (stereo not given)" readout="Percent Effect" measure_unit=% value=-4.025
compound=CCOc1ccc(CCC(=O)N2CC[C@H]3C(=O)NCCO[C@H]3C2)cc1 readout="Percent Effect" measure_unit=% value=8.218
compound=Cn1cccc1C(=O)N[C@@H]1CN(S(C)(=O)=O)[C@@H]2COC[C@@H]21 readout="Percent Effect" measure_unit=% value=-0.3534
compound="Cc1ccc(O)c(C(=O)N2CCC(CNC(=O)OC(C)(C)C)C2)c1 (stereo not given)" readout="Percent Effect" measure_unit=% value=18.78
compound=CCc1nc(C)cc(N2CCN(C(=O)[C@@H]3C[C@@H]4C=C[C@H]3C4)CC2)n1 readout="Percent Effect" measure_unit=% value=84.46
compound="c1ccc(-n2ncc(CNC3CCc4ncnn4C3)n2)cc1 (stereo not given)" readout="Percent Effect" measure_unit=% value=-11.2
compound=COc1cc(CN(C)C(=O)NCc2nccs2)ccc1SC readout="Percent Effect" measure_unit=% value=-21.32
compound=CN(Cc1cc(F)ccc1C#N)CC(C)(CO)CO readout="Percent Effect" measure_unit=% value=8.99

Source of measurements: ChEMBL document CHEMBL3988442
